Values from patent US20240025883A1

Target: human GPR17 short isoform (Homo sapiens (Human))
Sequence (Q13304 29-367): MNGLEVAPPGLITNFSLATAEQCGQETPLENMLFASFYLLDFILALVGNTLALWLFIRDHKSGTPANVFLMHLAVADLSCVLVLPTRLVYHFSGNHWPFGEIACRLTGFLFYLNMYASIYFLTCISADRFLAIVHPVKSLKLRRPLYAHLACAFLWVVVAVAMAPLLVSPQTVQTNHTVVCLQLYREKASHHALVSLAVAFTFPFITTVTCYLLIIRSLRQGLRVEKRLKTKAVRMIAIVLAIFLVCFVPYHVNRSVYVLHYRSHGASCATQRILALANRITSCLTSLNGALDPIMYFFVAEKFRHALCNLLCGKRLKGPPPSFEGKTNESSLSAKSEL
Assay: GPR17 cAMP assay (hGPR17 cAMP, antagonist mode against EC80 of MDL29,951)
Settings: CHO-K1 cells stably expressing human GPR17 short isoform; EC80 of agonist MDL29,951; forskolin 15 μM
Description: GPR17 cAMP Assay Protocol: […] Changes in intracellular cyclic adenosine monophosphate (cAMP) levels were quantified using the Nano-TRF Detection Assay kit (Roche Diagnostics, Cat. No. 05214386001). This assay allows for direct cAMP quantification in a homogeneous solution, cAMP is detected based on time-resolved fluorescence energy transfer (TR-FRET) and competitive binding of ruthenylated cAMP and endogenous cAMP to an anti-cAMP monoclonal antibody labeled with AlexaFluor-700. […]
pIC50: −log10 of the molar value.
Endpoint name: pIC50

Compound	Endpoint name	Result
COc1nc(NS(=O)(=O)c2csc3nc(Br)ccc23)nc(OC)c1C [Example 144]	pIC50	7.30
COc1nc(NS(=O)(=O)c2c[nH]c3c(F)c(Cl)ccc23)nc(OC)c1CC(F)F [Example 217]	pIC50	7.77
COc1nc(NS(=O)(=O)c2csc3nc(Cl)ccc23)ncc1CC(F)F [Example 139]	pIC50	6.97
COc1nc(NS(=O)(=O)c2c[nH]c3c2ccc2cccnc23)nc(OC)c1OCC(F)F [Example 168]	pIC50	7.59
COc1nc(NS(=O)(=O)c2c[nH]c3cc(Cl)ccc23)ncc1Br [Example 22]	pIC50	6.29
COc1nc(NS(=O)(=O)c2c[nH]c3nc(Br)ccc23)nc(OC)c1OC(F)(F)CF [Example 110]	pIC50	7.60

----------
molecular target: human GPR17 short isoform (Homo sapiens (Human)); assay: GPR17 cAMP assay (hGPR17 cAMP, antagonist mode against EC80 of MDL29,951); settings: CHO-K1 cells stably expressing human GPR17 short isoform; EC80 of agonist MDL29,951; forskolin 15 μM
pIC50: −log10 of the molar value.

Query smiles	pIC50
COc1nc(NS(=O)(=O)c2c[nH]c3cc(Br)ccc23)ncc1OC(F)F	6.78
COc1nc(NS(=O)(=O)c2c[nH]c3c(OC)c(Cl)ccc23)ncc1CC(F)F	7.89
COc1nc(NS(=O)(=O)c2c[nH]c3c(C#N)c(Cl)ccc23)nc(OC)c1OC(F)F	7.60
COc1nc(NS(=O)(=O)c2c[nH]c3cc(F)ccc23)nc(OC)c1CC(F)F	7.43
COc1nc(NS(=O)(=O)c2c[nH]c3cc(Cl)ccc23)nc(OCCF)c1Br	6.67
COc1nc(NS(=O)(=O)c2c[nH]c3cc(Cl)ccc23)ncc1CCC(F)F	7.59
COc1nc(NS(=O)(=O)c2c[nH]c3c4c(ccc23)COC4)nc(OC)c1CC(F)F	7.57
COc1nc(NS(=O)(=O)c2c[nH]c3cc(C(F)F)ccc23)nc(OC)c1CCC#N	7.96
COc1nc(NS(=O)(=O)c2c[nH]c3nc(C)ccc23)nc(OC)c1OCC#N	6.56
COc1nc(NS(=O)(=O)c2c[nH]c3c(F)c(Cl)ccc23)nc(OC)c1OCC(F)F	7.60
COc1nc(NS(=O)(=O)c2c[nH]c3nc(Cl)ccc23)ncc1OC(F)(F)CF	7.57
COc1nc(NS(=O)(=O)c2csc3cc(Br)ccc23)ncc1OCC(F)F	6.75
COc1nc(NS(=O)(=O)c2c[nH]c3cc(Cl)ccc23)ncc1OC(F)(F)CF	7.68
C=CCc1c(OC)nc(NS(=O)(=O)c2c[nH]c3cc(Cl)ccc23)nc1OC	7.89
COc1nc(NS(=O)(=O)c2c[nH]c3nc(C(F)F)ccc23)nc(OC)c1OCC#N	6.99
COc1nc(NS(=O)(=O)c2c[nH]c3nc(C(F)F)ccc23)nc(OC)c1OC(F)F	7.12
COc1nc(NS(=O)(=O)c2c[nH]c3cc(Cl)ccc23)ncc1OC(F)(F)C(F)F	7.22
